system: S. mutans; experiment: Acid inhibition (AI): 0.1 normal NaOH needed to neutralize acid produced by S. mutans from sucrose after 48 hours; assay type: cell-based; conditions: trypticase-yeast medium containing sucrose, 48 hours incubation
outcome-measure: AI (acid inhibition; amount of 0.1 normal NaOH required)
Remember to quote the unit after the number.

Prompt: Return value of AI (acid inhibition; amount of 0.1 normal NaOH required) for input CCCCCCCCCCCSC(=N)N [n=11, R=C6 H5] , no commentary.
Response: 0.5 mL

Prompt: Return value of AI (acid inhibition; amount of 0.1 normal NaOH required) for input CCCCCCCCCCCCCSC(=N)N [n=13, R=C6 H5, Tridecyl thiouronium phenylphosphonate] , no commentary.
Response: 0.3 mL

Prompt: Return value of AI (acid inhibition; amount of 0.1 normal NaOH required) for input CCCCCCCCCCSC(=N)N [n=10, R=C6 H5, n-Decyl thiouronium phenylphosphonate] , no commentary.
Response: 1.25 mL

Prompt: Return value of AI (acid inhibition; amount of 0.1 normal NaOH required) for input CCCCCCCCCCCCCCSC(=N)N [n=14, R=CH3] , no commentary.
Response: 0.5 mL
